Biological target: purified recombinant human alpha synuclein fibrils (human, UniProt P37840 1-140)
Assay: SPR, Biacore T200, as in Example 3; full-length IgG4P injected
outcome measure: kon (M⁻¹ s⁻¹)
Lab book: enter the figure in M⁻¹ s⁻¹, no units written.

Query :: Name the recorded kon of the item VR6470 gL3; gH36-S56N-N102H (antibody, human IgG4 S228P, kappa, V domains shown, Full-length humanized human IgG4P) VH: EVQLLESGGGLVQPGGSLRLSCAVSGIDLSSHDMYWVRQAPGKGLEYIGAIYASGNTYYASWAKGRFTISRDSSKNTLYLQMNSLRAEDTAVYYCARIHYGHSGGLWGQGTLVTVSS VL: DIQMTQSPSSLSASVGDRVTITCQASQSVYKNNYLAWFQQKPGKAPKQLIYGASTLASGVPSRFSGSGSGTQFTLTISSLQPEDFATYYCAGYKGGRNDGFAFGGGTKVEIKR in your answer.
Result :: 1.25e+06

Query :: Name the recorded kon of the item 6470gL3gH23 IgG4P (antibody, V domains shown, Full-length humanized human IgG4P; also called VR6470 gL3) VH: EVQLLESGGGLVQPGGSLRLSCAVSGIDLSSHDMYWVRQAPGKGLEYIGAIYASGSTYYASWAKGRFTISRDNSKNTVYLQMNSLRAEDTAVYYCARIHYGNSGGLWGQGTLVTVSS VL: DIQMTQSPSSLSASVGDRVTITCQASQSVYKNNYLAWFQQKPGKAPKQLIYGASTLASGVPSRFSGSGSGTQFTLTISSLQPEDFATYYCAGYKGGRNDGFAFGGGTKVEIKR in your answer.
Result :: 855000
